Cited source for all entries: patent US8178506B2

- Test system: aP2
- assay text: aP2 mRNA expression in adipocytes (real-time PCR)
- Type: cell-based, human
- protocol conditions: differentiating adipocytes transfected with oligomeric compound; Table 75
In the oligonucleotide strings, read from the 5' end, every base follows the letter of its sugar. An asterisk marks phosphorothioate; unmarked linkages are phosphodiester. Other units and linkages are bracketed, terminal groups are in braces. A string of capitals states the bases alone. e = 2'-O-(2-methoxyethyl) (MOE); [5mC] = 5-methylcytosine
For each of the substances below, state its aP2 mRNA.

Please state recorded aP2 mRNA (tested on aP2) of 327963 (antisense eA*eA*e[5mC]*e[5mC]*eT*eA*eT*e[5mC]*e[5mC]*eT*eG*eA*eA*eT*eT*eA*e[5mC]*eT*eT*eG*eA*eA) [compound 327963] 75 percentage of untreated control (UTC)

Please provide the recorded aP2 mRNA for 346687 (AGCAAGCCCAGACCGCAAAAAG; all 2'-MOE, all phosphorothioate, methylation of C not given here) [compound 346687] , tested on aP2. 56 percentage of untreated control (UTC)

API: value(readout= aP2 mRNA, system= aP2, query= 328116 (antisense e[5mC]*eA*eA*eA*eA*eT*eT*eG*e[5mC]*eA*eA*eG*e[5mC]*eA*eA*eA*eT*eT*eG*e[5mC]*eA) [compound 328116] ) 99 percentage of untreated control (UTC)

# query: aP2 mRNA | item 341800 (antisense AAGCCCAAAAGGAGAAUUCUUUG; all 2'-MOE, all phosphorothioate, methylation of C and T or U not given here) [compound 341800] | system: aP2 50 percentage of untreated control (UTC)

Write down the reported aP2 mRNA of 348125 (GCUGGAUGCAAACCUGCAAAACU; anti-miR; all 2'-MOE, all phosphorothioate, methylation of C and T or U not given here) [compound 348125] , test system: aP2. 67 percentage of untreated control (UTC)

Request: aP2 mRNA, test system aP2, entry 327971 (antisense eG*eG*eA*eA*eA*eT*e[5mC]*e[5mC]*e[5mC]*eT*eG*eG*e[5mC]*eA*eA*eT*eG*eT*eG*eA*eT) [compound 327971] 49 percentage of untreated control (UTC)

Missing value: aP2 mRNA, aP2, entry 328108 (antisense eA*eA*eA*e[5mC]*eT*eT*eG*eT*eT*eA*eA*eT*eT*eG*eA*e[5mC]*eT*eG*eT*e[5mC]*eA) [compound 328108] . Fill in? 87 percentage of untreated control (UTC)

Lookup: aP2 mRNA / aP2 / 327935 (antisense e[5mC]*eT*eA*e[5mC]*e[5mC]*eT*eG*e[5mC]*eA*e[5mC]*eT*eA*eT*eA*eA*eG*e[5mC]*eA*e[5mC]*eT*eT*eT*eA) [compound 327935] 60 percentage of untreated control (UTC)

Give aP2 aP2 mRNA for 346694 (AACCCAUGGAAUUCAGUUCUCA; all 2'-MOE, all phosphorothioate, methylation of C and T or U not given here) [compound 346694] 41 percentage of untreated control (UTC)

Quick check: aP2 mRNA on aP2, item 348116 (UUCGCCCUCUCAACCCAGCUUUU; anti-miR; all 2'-MOE, all phosphorothioate, methylation of C and T or U not given here) [compound 348116] ? 79 percentage of untreated control (UTC)

Test system aP2; read-out aP2 mRNA; what value for 327897 (antisense eA*e[5mC]*eA*eG*eG*e[5mC]*e[5mC]*eG*eG*eG*eA*e[5mC]*eA*eA*eG*eT*eG*e[5mC]*eA*eA*eT*eA) [compound 327897] ? 62 percentage of untreated control (UTC)

GET /values?readout=aP2 mRNA&system=aP2&item= 341795 (antisense AACCAAUGUGCAGACUACUGUA; all 2'-MOE, all phosphorothioate, methylation of C and T or U not given here) [compound 341795] 76 percentage of untreated control (UTC)

Test system aP2; read-out aP2 mRNA; what value for 327966 (antisense eA*eT*e[5mC]*e[5mC]*eA*eA*eT*e[5mC]*eA*eG*eT*eT*e[5mC]*e[5mC]*eT*eG*eA*eT*eG*e[5mC]*eA*eG*eT*eA) [compound 327966] ? 53 percentage of untreated control (UTC)

Observed aP2 mRNA on aP2 for 327949 (antisense e[5mC]*eA*e[5mC]*eA*eA*eA*eT*eT*e[5mC]*eG*eG*eA*eT*e[5mC]*eT*eA*e[5mC]*eA*eG*eG*eG*eT*eA) [compound 327949] , please. 52 percentage of untreated control (UTC)

Hi! What's the reported aP2 mRNA for 344276 (antisense CAGGCAUAGGAUGACAAAGGGAA; all 2'-MOE, all phosphorothioate, methylation of C and T or U not given here) [compound 344276] on aP2? 72 percentage of untreated control (UTC)

// lookup aP2 mRNA | system=aP2 | key= 344340 (UGUCCGUGGUUCUACCCUGUGGUA; all 2'-MOE, all phosphorothioate, methylation of C and T or U not given here) [compound 344340] 82 percentage of untreated control (UTC)

Identify the measured aP2 mRNA of 348117 (GAACCCACAAUCCCUGGCUUA; all 2'-MOE, all phosphorothioate, methylation of C and T or U not given here) [compound 348117] for aP2. 70 percentage of untreated control (UTC)

* * *

- Test system: IL-12 mRNA
- assay text: IL-12 mRNA in LPS-activated primary murine macrophages
- Format: cell-based, mouse
- protocol conditions: 300 nM oligomeric compound, stimulation with IFN-gamma and LPS; average of 2 experiments; normalized to LPS-treated cells without oligomeric compound
In the oligonucleotide strings, read from the 5' end, every base follows the letter of its sugar. An asterisk marks phosphorothioate; unmarked linkages are phosphodiester. Other units and linkages are bracketed, terminal groups are in braces. A string of capitals states the bases alone. e = 2'-O-(2-methoxyethyl) (MOE); [5mC] = 5-methylcytosine; d = 2'-deoxy (DNA)
observable: IL-12 mRNA expression, +IFN % UTC (% UTC)
Your answer is read as % UTC, so omit the unit and give the number.

Can you look up the measured IL-12 mRNA expression, +IFN % UTC of 327889 (antisense eG*eT*eG*eG*eT*eA*eA*eT*e[5mC]*e[5mC]*e[5mC]*eT*eG*eG*e[5mC]*eA*eA*eT*eG*eT*eG*eA*eT) [compound 327889] for me? 10

Please report the recorded IL-12 mRNA expression, +IFN % UTC for 327936 (antisense eA*e[5mC]*eA*eG*e[5mC]*eT*eG*eG*eT*eT*eG*eA*eA*eG*eG*eG*eG*eA*e[5mC]*e[5mC]*eA*eA) [compound 327936] . 55

So what does the record say about IL-12 mRNA expression, +IFN % UTC for 341815 (antisense CAUCGUUACCAGACAGUGUUA; all 2'-MOE, all phosphorothioate, methylation of C and T or U not given here) [compound 341815] ? 157

Entry 328129 (antisense eA*eG*e[5mC]*e[5mC]*eT*e[5mC]*e[5mC]*eT*eT*e[5mC]*eT*eT*e[5mC]*eT*e[5mC]*eG*eT*eA*e[5mC]*eT*eA) [compound 328129] : reported IL-12 mRNA expression, +IFN % UTC = ? 10

Value lookup for IL-12 mRNA expression, +IFN % UTC; key = 229927 (antisense e[5mC]*e[5mC]*eA*e[5mC]*eA*dT*dT*dG*dA*dG*dT*dT*dT*d[5mC]*dT*eT*eT*eA*eA*eG) [compound 229927] 145

* * *

Answer each item with its documented % cells in cell cycle phase: G1.
- System: HeLa cells
- assay text: Cell cycle assay in HeLa cells
- Format: cell-based, human
- protocol conditions: HeLa cells, 150 nM oligomeric compound, 48 hours after treatment; relative to untreated control (UTC=100)
In the oligonucleotide strings, read from the 5' end, every base follows the letter of its sugar. An asterisk marks phosphorothioate; unmarked linkages are phosphodiester. Other units and linkages are bracketed, terminal groups are in braces. A string of capitals states the bases alone. e = 2'-O-(2-methoxyethyl) (MOE); [5mC] = 5-methylcytosine; d = 2'-deoxy (DNA)
Write the value in % as a bare number.

Please look up its % cells in cell cycle phase: G1: 327949 (antisense e[5mC]*eA*e[5mC]*eA*eA*eA*eT*eT*e[5mC]*eG*eG*eA*eT*e[5mC]*eT*eA*e[5mC]*eA*eG*eG*eG*eT*eA) [compound 327949] 66

Entry under review: 328724 (antisense eG*eA*e[5mC]*eA*eT*d[5mC]*dA*dT*dG*dT*dG*dA*dT*dT*dT*eG*e[5mC]*eT*e[5mC]*eA) [compound 328724] . Reported % cells in cell cycle phase: G1? 70

Recorded % cells in cell cycle phase: G1 of 328397 (antisense eT*eT*eG*eA*eT*d[5mC]*d[5mC]*dA*dT*dA*dT*dG*d[5mC]*dA*dA*e[5mC]*eA*eA*eG*eG) [compound 328397] , please. 97

Requested read-out: % cells in cell cycle phase: G1. Entry: 328759 (antisense eG*eA*eG*eG*eG*dA*dT*dT*dG*dT*dA*dT*dG*dA*dA*e[5mC]*eA*eT*e[5mC]*eT) [compound 328759] 50

Name the recorded % cells in cell cycle phase: G1 for 338826 (antisense CGGATCCTGTTACCTCACCA; all 2'-MOE, all phosphorothioate, methylation of C not given here) [compound 338826] . 61

Which measured % cells in cell cycle phase: G1 value corresponds to 338809 (antisense CTGCTCCAGAGCCCGAGTCG; all 2'-MOE, all phosphorothioate, methylation of C not given here) [compound 338809] ? 86

Report % cells in cell cycle phase: G1 for 328687 (eG*e[5mC]*eT*eT*e[5mC]*d[5mC]*d[5mC]*dA*dG*d[5mC]*dG*dG*d[5mC]*d[5mC]*dT*eA*eT*eA*eG*eT; antisense) [compound 328687] please. 55

Which value of % cells in cell cycle phase: G1 has been reported for 327906 (antisense eT*e[5mC]*eA*eT*eA*eG*e[5mC]*e[5mC]*e[5mC]*eT*eG*eT*eA*e[5mC]*eA*eA*eT*eG*e[5mC]*eT*eG*e[5mC]*eT) [compound 327906] in the records? 100

Which value of % cells in cell cycle phase: G1 has been reported for 338756 (antisense TGCCCTGCTCAGAGCCCTAG; all 2'-MOE, all phosphorothioate, methylation of C not given here) [compound 338756] in the records? 90

GET /values?readout=% cells in cell cycle phase: G1&item= 328362 (eT*eG*eT*eG*eT*dT*dT*dT*d[5mC]*dT*dG*dA*d[5mC]*dT*d[5mC]*eA*eG*eT*e[5mC]*eA) [compound 328362] 96

For the substance shown here, 345395 (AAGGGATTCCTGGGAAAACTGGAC; sugars from the 5' end e5 d10 e9, all phosphorothioate, methylation of C not given here) [compound 345395] , give the reported % cells in cell cycle phase: G1. 51

// % cells in cell cycle phase: G1 lookup, key: 338666 (antisense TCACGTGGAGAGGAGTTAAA; all 2'-MOE, all phosphorothioate, methylation of C not given here) [compound 338666] 44

Fill in the blank: the reported % cells in cell cycle phase: G1 of 327889 (antisense eG*eT*eG*eG*eT*eA*eA*eT*e[5mC]*e[5mC]*e[5mC]*eT*eG*eG*e[5mC]*eA*eA*eT*eG*eT*eG*eA*eT) [compound 327889] is ____. 78

Which % cells in cell cycle phase: G1 value belongs to 327885 (antisense eA*e[5mC]*eT*eA*e[5mC]*e[5mC]*eT*eG*e[5mC]*eA*e[5mC]*eT*eG*eT*eA*eA*eG*e[5mC]*eA*e[5mC]*eT*eT*eT*eG) [compound 327885] ? 78

So what's the measured % cells in cell cycle phase: G1 for this one? 328374 (eA*eG*e[5mC]*eT*eT*dT*dA*dG*d[5mC]*dT*dG*dG*dG*dT*d[5mC]*eA*eG*eG*eA*e[5mC]; antisense) [compound 328374] 65

Would you kindly share the measured % cells in cell cycle phase: G1 for 327896 (antisense eA*e[5mC]*eA*eG*eT*eT*e[5mC]*eT*eT*e[5mC]*eA*eA*e[5mC]*eT*eG*eG*e[5mC]*eA*eG*e[5mC]*eT*eT) [compound 327896] ? 55

Which % cells in cell cycle phase: G1 reading was recorded for the substance 328119 (antisense eA*eA*eT*eA*eA*e[5mC]*eA*e[5mC]*eA*e[5mC]*eA*eT*e[5mC]*e[5mC]*eA*e[5mC]*eT*eT*eT*eA*eA) [compound 328119] ? 75

State the recorded % cells in cell cycle phase: G1 for this entry: 328136 (eA*eA*e[5mC]*eT*eA*e[5mC]*eT*eT*e[5mC]*e[5mC]*eA*eG*eA*eG*e[5mC]*eA*eG*eG*eT*eG*eA; anti-miR) [compound 328136] 83

Look at this substance and give its reported % cells in cell cycle phase: G1. 338769 (antisense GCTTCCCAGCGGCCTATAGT; all 2'-MOE, all phosphorothioate, methylation of C not given here) [compound 338769] 76

May I ask what % cells in cell cycle phase: G1 has been recorded for 327907 (antisense eA*eG*e[5mC]*e[5mC]*eT*eA*eT*e[5mC]*e[5mC]*eT*eG*eG*eA*eT*eT*eA*e[5mC]*eT*eT*eG*eA*eA) [compound 327907] ? 92

Please report the recorded % cells in cell cycle phase: G1 for 327908 (antisense e[5mC]*eA*eA*eT*eG*e[5mC]*eA*eA*e[5mC]*eT*eA*e[5mC]*eA*eA*eT*eG*e[5mC]*eA*e[5mC]) [compound 327908] . 99

Return reported % cells in cell cycle phase: G1; argument: 327901 (antisense eT*eG*eA*eG*e[5mC]*eT*eA*e[5mC]*eA*eG*eT*eG*e[5mC]*eT*eT*e[5mC]*eA*eT*e[5mC]*eT*e[5mC]*eA) [compound 327901] 98

Query (substance): 338678 (antisense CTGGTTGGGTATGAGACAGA; all 2'-MOE, all phosphorothioate, methylation of C not given here) [compound 338678] ; field requested: % cells in cell cycle phase: G1 81
